Recorded IC50 for the following compounds
test system: human breast cancer MCF-7; test: MTT antiproliferative assay, MCF-7; assay type: cell-based; conditions: 48 h, mean ± SD, three independent experiments
Record the value in µM, omitting the unit from your answer.

INSERT INTO measurements (compound, property_name, experimental_result) VALUES
  ('C=C(C)C1CCC2(C)CCC3(C)C(CCC4C5(C)CCC(OC(=O)N6CCN(C(=O)CN7C(=O)SC(=Cc8ccc(F)cc8)C7=O)CC6)C(C)(C)C5CCC43C)C12 (stereo not shown)', 'IC50', 19.1),
  ('C=C(C)C1CCC2(C)CCC3(C)C(CCC4C5(C)CCC(OC(=O)NCCNC(=O)CN6C(=O)SC(=Cc7ccc(C)cc7)C6=O)C(C)(C)C5CCC43C)C12 (stereo not shown) [Compound 12c]', 'IC50', 14.3),
  ('C=C(C)C1CCC2(C)CCC3(C)C(CCC4C5(C)CCC(OC(=O)CN6C(=O)SC(=Cc7ccc(C)cc7)C6=O)C(C)(C)C5CCC43C)C12 (stereo not shown)', 'IC50', 22.1);

### Prompt Which IC50 value belongs to C=C(C)C1CCC2(C)CCC3(C)C(CCC4C5(C)CCC(OC(=O)NCCNC(=O)CN6C(=O)SC(=Cc7ccc(Cl)cc7)C6=O)C(C)(C)C5CCC43C)C12 (stereo not shown) [Compound 12b] ?
### Response 19.1
